Listed here are compounds together with their documented pIC50.
Test system: KOPN8 cell line
protocol.notes: cells
Type: cell-based, human
reported.conditions: Homo sapiens, KOPN-8, 96 h
pIC50: −log10 of the molar value.

So what does the record say about pIC50 for O=C1CCC(N2C(=O)c3ccccc3C2=O)C(=O)N1 (stereo not shown) [Thalidomide] ?
< 5.30

----------
Listed here are molecules together with their documented pIC50.
System: TIB-202 cell line
protocol.notes: cells
Assay type: cell-based, human
reported.conditions: Homo sapiens, 96 h, read-out: IC50 Mean ± SE
Keep it numeric: pIC50 is minus log10 of the concentration in mol/L.

Examples with answers:
Record C/C(=C\c1csc(C)n1)[C@@H]1C[C@@H]2O[C@]2(C)CCC[C@H](C)[C@H](O)[C@@H](C)C(=O)C(C)(C)[C@@H](O)CC(=O)N1 [Ixabepilone] : what is its pIC50 with TIB-202 cell line?
7.18

Record CCC1=C[C@@H]2CN(C1)Cc1c([nH]c3ccccc13)[C@@](C(=O)OC)(c1cc3c(cc1OC)N(C)[C@H]1[C@@](O)(C(=O)OC)[C@H](OC(C)=O)[C@]4(CC)C=CCN5CC[C@]31[C@@H]54)C2 : what is its pIC50 with TIB-202 cell line?
6.37

Continuing:
Record Nc1ncn([C@H]2C[C@H](O)[C@@H](CO)O2)c(=O)n1 : what is its pIC50 with TIB-202 cell line?
6.29
